The reported numbers originate from patent US20200024330A1.

Reported Fold IC50 increase relative to wild-type values are given for each entry in this list.
# study target: HIV-1 JR-CSF Env N302A (HIV-1 JR-CSF) (UniProt P20871)
# procedure text: cell-based or functional assay
Number in fold, nothing else.

binder	scale unit	Fold IC50 increase relative to wild-type
PGT-123 (antibody, V domains shown) VH: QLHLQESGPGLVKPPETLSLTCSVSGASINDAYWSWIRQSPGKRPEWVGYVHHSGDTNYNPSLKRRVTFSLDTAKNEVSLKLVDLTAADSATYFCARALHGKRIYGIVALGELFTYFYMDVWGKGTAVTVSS VL: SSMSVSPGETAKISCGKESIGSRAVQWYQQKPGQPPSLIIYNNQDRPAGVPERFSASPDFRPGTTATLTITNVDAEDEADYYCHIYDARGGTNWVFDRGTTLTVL	fold	1.3

Ask | Give a short answer stating reported Fold IC50 increase relative to wild-type for PGT-130 (antibody, V domains shown) VH: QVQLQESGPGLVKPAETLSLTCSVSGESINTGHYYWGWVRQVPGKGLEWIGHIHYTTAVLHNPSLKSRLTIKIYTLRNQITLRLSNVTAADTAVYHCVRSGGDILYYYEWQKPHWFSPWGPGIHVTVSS VL: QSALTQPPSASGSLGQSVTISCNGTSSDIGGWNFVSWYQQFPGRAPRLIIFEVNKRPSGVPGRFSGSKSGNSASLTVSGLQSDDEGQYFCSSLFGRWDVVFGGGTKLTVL .
Reply | 1.1

Ask | Indicate its recorded Fold IC50 increase relative to wild-type; the binder in question is PGT-135 (antibody, V domains shown) VH: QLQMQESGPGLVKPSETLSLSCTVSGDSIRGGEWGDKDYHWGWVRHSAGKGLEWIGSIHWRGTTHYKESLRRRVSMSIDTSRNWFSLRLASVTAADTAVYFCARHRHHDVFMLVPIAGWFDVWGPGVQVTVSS VL: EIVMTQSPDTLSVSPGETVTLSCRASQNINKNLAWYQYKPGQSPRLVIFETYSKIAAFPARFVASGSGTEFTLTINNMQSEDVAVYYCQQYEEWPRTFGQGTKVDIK
Reply | 0.8

Ask | Give the reported Fold IC50 increase relative to wild-type for this binder. PGT-131 (antibody, V domains shown) VH: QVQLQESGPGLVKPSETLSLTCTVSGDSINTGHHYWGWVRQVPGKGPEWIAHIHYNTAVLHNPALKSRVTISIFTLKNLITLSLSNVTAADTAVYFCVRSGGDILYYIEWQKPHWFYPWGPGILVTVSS VL: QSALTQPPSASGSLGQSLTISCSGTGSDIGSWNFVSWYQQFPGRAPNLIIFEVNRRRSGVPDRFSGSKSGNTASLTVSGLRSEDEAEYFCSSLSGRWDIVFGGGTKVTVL
Reply | 1

Ask | Kindly indicate its recorded Fold IC50 increase relative to wild-type. Item: PGT-126 (antibody, V domains shown) VH: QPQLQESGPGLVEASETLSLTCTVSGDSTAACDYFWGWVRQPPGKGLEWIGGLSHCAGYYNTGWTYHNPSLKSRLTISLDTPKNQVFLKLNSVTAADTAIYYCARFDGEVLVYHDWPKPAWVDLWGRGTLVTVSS VL: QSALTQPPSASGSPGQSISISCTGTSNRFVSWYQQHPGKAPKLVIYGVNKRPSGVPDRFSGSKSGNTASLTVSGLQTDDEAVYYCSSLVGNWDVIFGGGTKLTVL
Reply | 0.9
